Data provenance is patent EP4755885A1.

Give measured AUC(0-inf) for each item. Keep answers brief.
PROCEDURE DETAILS: Pharmacokinetic evaluation in beagles, oral administration
Format: in vivo
CONDITION CONTEXT: male, beagle, dog, po, p.o. 2 mg/kg, plasma
Numbers only, in ng·h/mL.

SMILES RECORD	UNITS OF MEASURE	RESULT VALUE
[2H]C([2H])([2H])n1nc2c3c(c(-n4ccn(-c5c6c(nn5-c5cc(C)c(F)c(C)c5)CCN(C(=O)c5cc7cc([C@H]8CCOC(C)(C)C8)ccc7n5[C@@]5(c7noc(=O)[nH]7)C[C@@H]5COC5CC5)[C@H]6C)c4=O)ccc31)OCCC2	ng·h/mL	19400

In the following, a different compound is considered.
Tell me measured AUC(0-inf) for C#C[C@H]1C[C@]1(c1noc(=O)[nH]1)n1c(C(=O)N2CCc3nn(-c4cc(C)c(F)c(C)c4)c(-n4ccn(-c5ccc6c(cnn6C6CC6)c5F)c4=O)c3[C@@H]2C)cc2cc([C@H]3CCOC(C)(C)C3)ccc21 please.
17800

---

PROCEDURE DETAILS: Pharmacokinetic evaluation in Macaca fascicularis monkeys, oral administration
Assay type: in vivo
CONDITION CONTEXT: male, cynomolgus monkey, p.o. 5 mg/kg, plasma
MEASUREMENT KIND: AUC(0-t) (ng·h/mL)
One number for each entry, in ng·h/mL.

Tell me measured AUC(0-t) for C#C[C@H]1C[C@]1(c1noc(=O)[nH]1)n1c(C(=O)N2CCc3nn(-c4cc(C)c(F)c(C)c4)c(-n4ccn(-c5ccc6c(cnn6C6CC6)c5F)c4=O)c3[C@@H]2C)cc2cc([C@H]3CCOC(C)(C)C3)ccc21 please.
26000

---

PROCEDURE DETAILS: Pharmacokinetic evaluation in Macaca fascicularis monkeys, oral administration
Type: in vivo
CONDITION CONTEXT: male, cynomolgus monkey, p.o. 5 mg/kg, plasma
MEASUREMENT KIND: Cmax (ng/mL)
Give bare numbers, in ng/mL.

Tell me measured Cmax for C#C[C@H]1C[C@]1(c1noc(=O)[nH]1)n1c(C(=O)N2CCc3nn(-c4cc(C)c(F)c(C)c4)c(-n4ccn(-c5ccc6c(cnn6C6CC6)c5F)c4=O)c3[C@@H]2C)cc2cc([C@H]3CCOC(C)(C)C3)ccc21 please.
4040

---

Give measured AUC(0-inf) for each item. Keep answers brief.
PROCEDURE DETAILS: Pharmacokinetic evaluation in mice, oral administration
Type: in vivo, Balb/c mice
CONDITION CONTEXT: mouse, in vivo, po, p.o. 5 mg/kg, plasma, not marked single PK (cassette PK)
Give bare numbers, in ng·h/mL.

COMPOUND	AUC(0-inf), ng·h/mL
C[C@H]1c2c(nn(-c3ccc(F)c(C4CC4)c3)c2-n2ccn(-c3ccc4c(c3)C3(CC3)C(=O)N4C)c2=O)CCN1C(=O)c1cc2cc([C@H]3CCOC(C)(C)C3)ccc2n1[C@@]1(c2noc(=O)[nH]2)C[C@@H]1C [Example 32]	9320
Cc1cc(-n2nc3c(c2-n2ccn(-c4ccc(CC(=O)N(C)C)cc4F)c2=O)[C@H](C)N(C(=O)c2cc4cc([C@H]5CCOC(C)(C)C5)ccc4n2[C@@]2(c4noc(=O)[nH]4)C[C@@H]2C)CC3)cc(C)c1F [Example 7]	10800
[2H]C([2H])(OC1CC1)[C@H]1C[C@]1(c1noc(=O)[nH]1)n1c(C(=O)N2CCc3nn(-c4cc(C)c(F)c(C)c4)c(-n4ccn(-c5ccc6c(cnn6C6CC6)c5F)c4=O)c3[C@@H]2C)cc2cc([C@H]3CCOC(C)(C)C3)ccc21 [Example 194]	32200

In the following, a different compound is considered.
Tell me measured AUC(0-inf) for Cc1cc(-n2nc3c(c2-n2ccn(-c4ccc5c(cnn5C5CC5)c4F)c2=O)[C@H](C)N(C(=O)c2cc4cc([C@H]5CCOC(C)(C)C5)ccc4n2[C@@]2(c4noc(=O)[nH]4)C[C@@H]2C)CC3)cc(C)c1F [Example 25] please.
39000
